# testDetails: growth inhibition, single agents and combos, HTB85, cell-based, BGB or cisplatin IC20 combos, synergistic combos for chromothripsis tumors (AID 1671453);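 further: cells exposed for 96 hours before readout; 0% = vehicle DMSO and 100% = high DMSO killing control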
# conditionSet: HTB85 osteosarcoma cells, drug combinations, at 0.5 µM, stronger effect = higher value
Active and inactive are the calls of the source. No stated cut-off is given here; in the data, active means inhibition above about 80%; inactive means the rest.
propertyName: inhibition

Use these answered entries as a reference point.
CC1OC(n2cc(F)c(=O)[nH]c2=O)C(O)C1O (stereo not drawn) = -23.8% (inactive)
NC(=O)c1ncn(C2OC(CO)C(O)C2O)c1O (stereo not drawn) = -21.2% (inactive)
N#Cc1ccc(OC2CCC(NC(=O)CCSc3nc4ccccc4c(=O)[nH]3)CC2)cc1 (stereo not drawn) = 8.65% (inactive)
C#CCC(CCCCCC)C(=O)O (stereo not drawn) = 6.28% (inactive)
O=C1C(=Cc2cccnc2)C(=O)c2ccccc21 = -5.81% (inactive)

The following compounds each have a reported value; give each one's inhibition.
1. COc1nc(N)nc2c1ncn2[C@@H]1O[C@H](CO)[C@@H](O)[C@H]1O
2. CC(Oc1cc(-c2cnn(C3CCNCC3)c2)cnc1N)c1c(Cl)ccc(F)c1Cl (stereo not drawn)
3. O=c1[nH]c(=O)n(C2CC(O)C(CO)O2)cc1I (stereo not drawn)
4. Nc1ccn(C2CCC(CO)O2)c(=O)n1 (stereo not drawn)
5. O=C(O)c1cc2cccc([N+](=O)[O-])c2[nH]1
6. Nc1nc(NC2CC2)cc(-c2cccc(Cl)c2Cl)n1

Result:
["-19.2% (inactive)", "2.72% (inactive)", "-28.2% (inactive)", "-28.2% (inactive)", "-15.9% (inactive)", "-20.9% (inactive)"]

The following compounds each have a reported value; give each one's inhibition.
1. Cc1ccc([N+](=O)[O-])cc1S(=O)(=O)N(C)/N=C\c1cnc2ccc(Br)cn12
2. C=CC1=C(C)C2=CC3=NC(=C(CC(=O)O)C4=NC(=C(C)C4=C(O)O)C=c4[nH]c(c(C)c4CC)=CC1=N2)C(CCC(=O)O)C3C (stereo not drawn)

Result:
1. 95.7% (active)
2. -16.7% (inactive)

----------
Exercise: state measured z-score for each of the compounds provided.
# testDetails: galactose survival enhancers in mitochondrial complex I cybrids – cell-based, galactose medium, ATP luminescence, primary screen (AID 1645843);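 further: positive z means more ATP and so rescue of galactose-driven cybrid death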
# conditionSet: complex I mutant cybrid cells, 72 h, stronger effect = higher value
One number for each entry.

The following compounds each have a reported value; give each one's z-score.
1. Cc1nonc1CN(C)c1ncnc2nc[nH]c12
2. Cc1sc2ncnc(N3CCC(Cn4cc(C(C)(C)N)nn4)CC3)c2c1C
3. CCOc1ccc(C=C2NCCc3cc(OCC)c(OCC)cc32)cc1OCC

Result:
1. -0.565
2. -0.55
3. -2.65

----------
Exercise: state measured fold change for each of the molecules provided.
# testDetails: viability loss with induced miR-34 in A549 – imaging, A549 dox-inducible miR-34, nuclei and caspase counts, primary screen (AID 1347080)
# conditionSet: A549 miR-34 inducible, Hoechst nuclei count, 48 h; measured here: relative caspase fold change +Dox/-Dox
Give bare numbers.

Use these answered entries as a reference point.
CCn1cnc(NC(=O)N(C)Cc2cccc3ncccc23)n1 = 1.82
COC(=O)CN1CCN(C(=O)Nc2n[nH]c(-c3ccco3)n2)CC1=O = 1.4

The following molecules each have a reported value; give each one's fold change.
1. O=c1ccc2c(OCCCCc3ccccc3)c3ccoc3cc2o1
2. CC(C)C[C@H](NC(=O)[C@H](O)[C@H](N)Cc1ccccc1)C(=O)O
3. NC1(C(=O)NC(CCO)c2ccc(Cl)cc2)CCN(c2ncnc3[nH]ccc23)CC1 (stereo not given)
4. CN(CC(=O)N(Cc1ccc(C2CCCCC2)cc1)c1ccc(C(=O)O)cc1)S(=O)(=O)c1c(F)c(F)c(F)c(F)c1F
5. O=C(Nc1n[nH]c(Cc2ccccc2)n1)N1CCN(c2ncncn2)CC1
6. Cc1cc2c(cc1Cl)N(C(=O)Nc1ccc(Oc3cccnc3C)nc1)CC2
7. CC1CC[C@]2(C(=O)O)CC[C@]3(C)C(=CC[C@H]4[C@@]5(C)CC(O)C(O)[C@@](C)(CO)[C@@H]5CC[C@]43C)[C@H]2C1C (stereo not given in full)

Result:
1. 1.92
2. 0.988
3. 0.36
4. 0.314
5. 1.11
6. 1.1
7. 0.855

----------
# testDetails: growth inhibition, single agents and combos, HTB85, cell-based, BGB or cisplatin IC20 combos, synergistic combos for chromothripsis tumors (AID 1671453);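 further: cells exposed for 96 hours before readout; 0% = vehicle DMSO and 100% = high DMSO killing control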
# conditionSet: HTB85 osteosarcoma cells, drug combinations, measured here: with cisplatin IC20, at 5 µM, stronger effect = higher value
Exercise: state measured inhibition for each of the compounds provided.
Numbers only, in %.

Use these answered entries as a reference point.
CC(C)C(=O)SCCCCCCC(=O)Nc1nc(-c2ccccc2)cs1 = 38.3
Nc1ncn(C2OC(CO)C(O)C2O)c(=O)n1 (stereo not given) = 4.48
CC1OC(CC(=O)O)CC2=C1C(=O)c1c(O)cccc1C2=O (stereo not given) = 99.7
C=C1CCC(O)CC1=CC=C1CCCC2(C)C1CCC2C(C)C=CC(C)C(C)C (stereo not given) = 1.54

Let's switch to this compound now.
Request: For CCC(C)C(=O)OC1CC(C)C=C2C=CC(C)C(CCC3CC(O)CC(=O)O3)C21 (stereo not given) , what is its reported inhibition?
Result: 74.6

----------
Exercise: state measured z-score for each of the compounds provided.
# testDetails: MELAS cybrid and Rieske KO viability enhancers – cell-based, MELAS cybrids, Rieske KO mouse fibroblasts, CellTiter-Glo, primary screen (AID 1508586);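 further: z relative to plate mean and SD of compound and empty wells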
# conditionSet: Rieske KO mouse fibroblast survival, low glucose, CellTiter-Glo 72 h
Answers are plain numbers.

Use these answered entries as a reference point.
CCc1cc(C(=O)N2CC(=O)N(Cc3ccc(OC)cc3)CC(OCc3ccncc3)C2)n(C)n1 (centres undefined) = -0.65
O=C(O)c1ccc(-c2ccccc2OC(F)(F)F)o1 = 0.181
Cc1[nH]c2ccccc2c1CCNCc1ccc(C=CC(=O)NO)cc1 = -2.76

Let's switch to this compound now.
Request: For CC(C)CN1CC(OCc2cccc(F)c2)CN(Cc2cccn2-c2ncccn2)CC1=O (centres undefined) , what is its reported z-score?
Result: -0.624

----------
# testDetails: viability loss with induced miR-34 in A549 – imaging, A549 dox-inducible miR-34, nuclei and caspase counts, primary screen (AID 1347080)
# conditionSet: A549 miR-34 inducible, Hoechst nuclei count, 48 h; cell number ratio, induced over uninduced
Calls of active or inactive are those of the source.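 The calls were made as follows: active = compounds whose cell count with miR-34 switched on is under 0.7 times the count with it off; inactive = the rest.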
Permitted responses: label 1 = active, label 0 = inactive

CCCn1c(=O)[nH]c(=O)c2[nH]cnc21 = label 0
C=C1C[C@@]2(O)O[C@@]3(CC2C(C)C)C(C)CC[C@@H]13 (stereo partly drawn) = label 0
O=C(O)c1ccc(-c2ccccc2C(F)(F)F)o1 = label 0
c1ccc(NCc2cccnc2)cc1 = label 0
c1ccn2cc(CCNc3ncnc4nc[nH]c34)nc2c1 = label 0

Request: # lookup: test call for CCc1nc(NC(=O)NCCc2nc(-c3ccc(C)cc3)no2)nn1C
Result: label 0

Request: # lookup: test call for C#CC(N)CCC(=O)O (stereo not drawn)
Result: label 0

----------
Exercise: state measured z-score for each of the molecules provided.
# testDetails: MELAS cybrid and Rieske KO viability enhancers – cell-based, MELAS cybrids, Rieske KO mouse fibroblasts, CellTiter-Glo, primary screen (AID 1508586);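 further: z relative to plate mean and SD of compound and empty wells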
# conditionSet: MELAS cybrid survival, low glucose, CellTiter-Glo 48 h; stronger effect = higher value
One number for each entry.

Use these answered entries as a reference point.
CC1CS(=O)(=O)CCN1N=Cc1ccc([N+](=O)[O-])o1 (centres undefined) = -0.298
CC1COC2=C1C(=O)C(=O)c1c2ccc2c1CCCC2(C)C (centres undefined) = -0.382
CCC(C)(C)C(=O)OC1CC(C)C=C2C=CC(C)C(CC[C@@H]3CC(O)CC(=O)O3)[C@H]21 (some centres undefined) = 1.26
CO[C@@]1(NC(=O)[C@H](C(=O)O)c2ccc(O)cc2)C(=O)N2C(C(=O)O)=C(CSc3nnnn3C)CO[C@@H]21 = 0.452

The following molecules each have a reported value; give each one's z-score.
1. CCC(=O)OCC(=O)[C@@]1(OC(=O)CC)[C@@H](C)C[C@H]2[C@@H]3CCC4=CC(=O)C=C[C@]4(C)C3(F)[C@@H](O)C[C@@]21C (some centres undefined)
2. COc1cc2c(cc1Cc1cccc(Cl)c1F)c(=O)c(C(=O)O)cn2C(CO)C(C)C (centres undefined)
3. O=C(Nc1nncs1)NC1Cc2ccccc2C1
4. CCC(CC)CNc1cc(C(=O)NCCN(C)C)cc(S(=O)(=O)Nc2ccc(OC)cc2)c1
5. COc1cccc2c1C(=O)c1c(O)c3c(c(O)c1C2=O)C[C@@](O)(C(C)=O)CC3O[C@H]1CC(N)C(O)C(C)O1 (some centres undefined)
6. Cc1cc(CS(=O)(=O)c2ccccc2)cc(OCc2ccc(CN3CCCC3CO)cc2)c1 (centres undefined)

Result:
[0.189, -0.198, -0.741, -0.364, 2.59, 0.0407]

The following molecules each have a reported value; give each one's z-score.
1. O=c1c(-c2ccccc2Cl)cc2c(n1Cc1ccncc1)CCN(Cc1ccnc3ccccc13)C2
2. CCOC(=O)C1OC1C(=O)NC(CC(C)C)C(=O)NCCC(C)C (centres undefined)
3. O=c1cc(-c2ccccc2)oc2ccccc12
4. C[C@H]1NC(=O)NC1=O
5. Cc1nc(NC(=O)NCc2cccc(Cl)c2)nn1C
6. NS(=O)(=O)c1ccc(F)cc1

Result:
-0.09
-0.522
2.28
0.723
7.52
0.294

// provenance: PubChem BioAssay
